assay: Displacement of methyl green from DNA (unknown origin) incubated in dark for 24 hrs
pIC50 for assorted molecules
Here pIC50 is given on a logarithmic scale as minus log10 of the concentration in mol/L.

Query: Recorded pIC50 for CCOC(=O)C1=C(N/N=C(/C(=O)Br)c2ccc(Br)cc2)Nc2[nH]nc(C)c2C1c1ccc(N(C)C)cc1 (stereo not drawn) , please?
Result: 4.36

Query: Next molecule: CCOC(=O)C1=C(NN=C(C#N)C#N)Nc2[nH]nc(C)c2C1c1ccc(N(C)C)cc1 (stereo not drawn)
Result: 4.36

Query: Please answer likewise for COc1cccc2c1C(=O)c1c(O)c3c(c(O)c1C2=O)C[C@@](O)(C(=O)CO)C[C@@H]3O[C@H]1C[C@H](N)[C@H](O)[C@H](C)O1
Result: 4.50
